Biological target: disulfide-stabilized Par-6 CRIB-PDZ (CRIB-PDZ^Q144C/L164C) (D. melanogaster)
Assay: ITC
measured metric: pKd
Quick note: pKd means taking -log10 of the concentration in moles per liter.

Return reported pKd; argument: GEERLI [modified Crumbs peptide lacking the proline residues (GEERLI)]
5.72
